- Test system: COLO 205 colon
- experiment summary: NCI-60 one-dose screen, 48 h
- test conditions: 10 µM unless noted
This is part of a sample that, as a whole, favours compounds with a hit. Of some 83,000 tested, about 20% had one in any assay. The source made the active and inactive calls. How the source made its calls: active means growth percent below 10; inactive means the rest.
Classes to choose from: active, inactive

Per the assay record, what outcome was assigned to COc1cccc2cc(-c3cc4ccccc4[nH]3)/c(=N\NC(=O)c3ccc(Cl)cc3)oc12 ? inactive

// query: O=C(CSc1nnc(-c2ccc(Cl)cc2)n1-c1ccccc1)Nc1ccc(Br)cc1 inactive

// query: Nc1ccccc1NC(=O)c1ccc(NC(=O)C/C=C/c2cccnc2)cn1 active

// query: CN1CCN(Cc2ccc(NC(=O)c3cncc(C#Cc4cnc5ccc(OCC(C)(C)O)nn45)c3)cc2C(F)(F)F)CC1 active

// query: CCOc1ccccc1NC1=C(Cl)C(=O)c2nc(C)ccc2C1=O inactive

// query: COc1c(N2CC3CCCNC3C2)c(F)cc2c(=O)c(C(=O)N/N=C/c3ccc(Br)cc3)cn(C3CC3)c12 (stereo not drawn) inactive

// query: CCN(CC)CCn1c2ccc(O)cc2c2sc3cc(OC)ccc3c(=O)c21 inactive

// query: CC(C)(C)c1ccc(C(=O)Nc2nc3ccc(O)cc3s2)cc1 active

// query: C#CCC#CCN1CCC[C@H]1C(=O)NCC(=O)OC inactive

// query: CCOc1ccc(NC2=C(Cl)C(=O)c3nc(C)ccc3C2=O)cc1 inactive

// query: O=C1CC(=O)N2CSCN(C(c3ccccc3)c3nc4ncncc4[nH]3)C2=N1 (stereo not drawn) inactive

// query: CNC(=O)c1cc(-n2ccc3cc(NC(=O)Nc4ccc(N5CCOCC5)c(C(F)(F)F)c4)ccc32)ccn1 inactive

// query: Cn1cc(-c2cc(N)n3nc(-c4cn(C)c5ccccc45)cc3n2)c2ccccc21 inactive

// query: Cn1ccnc1C(=O)/C=C/c1ccc(CNC(=O)c2ccc(F)cc2)cc1 inactive

// query: Nc1nc(Nc2ccccc2SSc2ccccc2Nc2nc(N)nc(-c3cccc(Br)c3)n2)nc(-c2cccc(Br)c2)n1 inactive

// query: C/C(=N\O)[C@H]1C[C@]23CC[C@]4(C)[C@H](CC[C@@H]5[C@@]6(C)CC/C(=N/O)C(C)(C)[C@@H]6CC[C@]54C)[C@H]2[C@H](C)C1(C)OC3 inactive

// query: O=C(CCn1c[n+](CC(=O)c2ccc(-c3ccccc3)cc2)c2ccccc21)Nc1cccc2cccnc12 inactive

// query: CCn1c2ccccc2c2cc(-n3nncc3-c3ccccc3)ccc21 active

// query: CN1CCN(Cc2ccc(NC(=O)c3cncc(C#Cc4cnc5ccc(OCC6(C)COC6)nn45)c3)cc2C(F)(F)F)CC1 active

// query: COc1ccc(-n2c(SCc3n[nH]c(=S)o3)nc3ccc(Cl)cc3c2=O)cc1 inactive

// query: COc1ccc(-n2c(SCc3nnc(NC(=O)c4ccc(Br)cc4)s3)nc3cc(OC)c(OC)cc3c2=O)cc1 inactive

// query: CCCn1cnc2c(c1=N)C(c1ccc(Cl)cc1)c1sc3c(CC)cccc3c1O2 (stereo not drawn) active

// query: COc1ccc(S(=O)(=O)NCCCNc2nccc(-c3[nH]c(-c4ccccc4)nc3-c3ccc(Cl)c(O)c3)n2)cc1 inactive

* * *

- Tested on: SW-620 colon
- experiment summary: NCI-60 one-dose screen, 48 h
- test conditions: 10 µM unless noted
Compounds without any hit were thinned out: in the full panel of roughly 83,000, 20% have a hit. The source made the active and inactive calls. Rule for the calls: active = growth percent below 10; inactive = the rest.
Classes to choose from: class 1 (active), class 0 (inactive)

Per the assay record, what outcome was assigned to COc1cc(OC)cc(C(=O)Nc2sc3c(c2C(N)=O)CCC(=O)C3)c1 ? class 0

// query: CS(=O)(=O)Nc1cc(-c2ccc3ncc(C#N)c(NCc4ccccc4F)c3c2)cnc1Cl class 1

// query: CN(C)CCNC(=O)c1ccc(-c2nc3ccc4[nH]ncc4c3c3c2CCC3)cc1 class 1

// query: COc1c(N2CC3CCCNC3C2)c(F)cc2c(=O)c(C(=O)N/N=C/c3ccc(Br)cc3)cn(C3CC3)c12 (stereo not given) class 0

// query: O=C(NNc1nc2cc(F)ccc2n2cccc12)c1ccncn1 class 0

* * *

- System: SN12C renal
- experiment summary: NCI-60 one-dose screen, 48 h (100 = growth as untreated, 0 = no growth, -100 = all killed)
- test conditions: 10 µM unless noted
About 83,000 compounds went through this panel and 20% of them were active in at least one assay; those are over-represented in the sample as a whole.
reported metric: growth (%)
Give a bare numeral; the unit % is implied.

Looking for the measured growth of Oc1ccc(CSc2nnc(-c3ccc(Cl)cc3)n2-c2ccccc2)c2cccnc12 , can you help? 33.2

// query: CC1(C)CC[C@]23CC[C@]4(C)[C@H](CC[C@@H]5[C@@]6(C)CCCN(CO)C(C)(C)[C@@H]6CC[C@]54C)[C@H]2[C@H]1OC3 89.6

// query: Cc1nc2ncc(-c3ccc4ncnc(NCc5ccccc5)c4c3)cc2[nH]1 32.3

// query: N/C(=N\C(N)=N\c1nc2ccccc2s1)c1ccc2ccccc2c1 75.3

// query: CCc1nn2c(C)cc(C)nc2c1Cc1ccc(/C=C/CN2CCN(CCOCCOCCN3CCN(C/C=C/c4ccc(Cc5c(CC)nn6c(C)cc(C)nc56)cc4)CC3)CC2)cc1 31.4

// query: Cn1cc(-c2nc(N)nnc2-c2c[nH]c3ccccc23)c2cc(Br)ccc21 27.9

// query: CCC(NC(c1cc2cccc3ccc4cccc1c4c32)c1nnnn1C(C)(C)C)C1CCCCC1 (stereo not drawn) 80.8

// query: CN1CCC(n2cc(Nc3ncc4c(=O)n(-c5c(Cl)cccc5Cl)cc(Br)c4n3)cn2)CC1 20.7

* * *

Task for the reader: assign each of the following compounds its reported growth.
- Test system: NCI/ADR-RES ovarian
- experiment summary: NCI-60 one-dose screen, 48 h (100 = growth as untreated, 0 = no growth, -100 = all killed)
- test conditions: 10 µM unless noted
- Protocol: Growth inhibition of the NCI/ADR-RES human […] tumor cell line is measured as a screen for anti-cancer activity. Cells are grown in 96 well plates and exposed to the test compound for 48 hours. Compounds are tested at a single concentration, which is 10^-5 M for most compounds. The reported endpoint is percent growth (GI% or GIPRCNT), where numbers from 0 - 100% represent growth inhibition, and numbers from -100% - 0 represent cell death. For example, a value of 40 represents 60% growth inhibition. […]
About 83,000 compounds went through this panel and 20% of them were active in at least one assay; those are over-represented in the sample as a whole.
Give a bare numeral; the unit % is implied.

Looking for the measured growth of CC1(C)CC[C@]2(C(=O)N3CCOCC3)CC[C@]3(C)C(=CC[C@@H]4[C@@]5(C)C/C(=C/c6ccccn6)C(=O)C(C)(C)[C@@H]5CC[C@]43C)[C@@H]2C1 , can you help? 81.4

// query: CCNC(=O)N1CCc2cc(OC)c(OCCc3ccc(OC)c(N)c3)cc2C1c1cc(C)c(C)cc1C (stereo not drawn) 20.8

// query: CC(=O)N1N=C(c2cccc(-n3cccc3)c2)CC1c1cccc(F)c1 (stereo not drawn) 95.9

// query: Nc1nc(Nc2ccccc2SSc2ccccc2Nc2nc(N)nc(-c3cccc(Br)c3)n2)nc(-c2cccc(Br)c2)n1 21.3

// query: Nc1nc(-c2cccc([N+](=O)[O-])c2)c(N=Nc2ccc([N+](=O)[O-])cc2Cl)s1 6.4

// query: O=S(=O)(NCCNc1nccc(-n2cnc3ccccc32)n1)c1ccc(Cl)cc1 97.8

// query: COc1ccc(Cn2cc3c(c2-c2cc(OC)c(OC)c(OC)c2)CCc2c(CN4CCOCC4)noc2-3)cc1 8.51

// query: O=C(Cn1cc(-c2ccccc2)nn1)Nc1nc(-c2ccc(Cl)cc2)cs1 102

* * *

- Test system: LOX IMVI melanoma
- experiment summary: NCI-60 one-dose screen, 48 h (100 = growth as untreated, 0 = no growth, -100 = all killed)
- test conditions: 10 µM unless noted
About 83,000 compounds went through this panel and 20% of them were active in at least one assay; those are over-represented in the sample as a whole. Activity calls are given as the source filed them. Rule for the calls: active = growth percent below 10; inactive = the rest.
reported metric: growth

Looking for the measured growth of Cc1ccc(N2C(=O)/C(=C/C=C/c3ccco3)SC2=S)cc1 , can you help? 96.2% (inactive)

// query: O=C(CN1CCN(c2cc(=O)n(-c3ccccc3)c3ccccc23)CC1)Nc1nc(-c2ccc(Cl)cc2)cs1 58.4% (inactive)

// query: CN(C)C(=O)c1cc(-c2ccc3ncnc(NCc4ccccc4)c3c2)cnc1N 75% (inactive)

// query: COc1c(N2CC3CCCNC3C2)c(F)cc2c(=O)c(C(=O)N/N=C/c3ccc(Br)cc3)cn(C3CC3)c12 (stereo not given) -73.5% (active)

// query: O=C1[C@@H]2Cc3c([nH]c4ccccc34)[C@H](c3c(Cl)cccc3Cl)N2C(=O)CN1C1CCN(CC2CCCCC2)CC1 -81.1% (active)
